- system: 447-52D
- test.protocol: BLI
result.type: pKd
pKd is a log-scale quantity: -log10 of the concentration expressed in molar.

## Input // Input: KSISIGPGQAI [SHIV_(1157ipd3N4) V3 peptide (305KSISIGPGQAI317)] . Output its pKd only.
## Output 7.26
